Measured values drawn from ChEMBL document CHEMBL5500396 for this set.

Protocol details: in vitro
Run conditions: human, hepatocytes
Description: Metabolic stability in human hepatocytes assessed as clearance measured per 10^6 cells at 1 uM incubated for 90 mins by LC-MS/MS analysis
Value kind: hepatocyte CLint at 1.5 h, 1 µM
Write down the value, and be sure its unit follows.

{"Input smiles": "O=C(NCCCOc1cccc([C@](O)(C(=O)O[C@H]2CCCN(Cc3ccccc3)C2)c2ccccc2)c1)c1ccc(CNC[C@H](O)c2ccc(O)c3[nH]c(=O)ccc23)cc1.O=CO", "hepatocyte CLint at 1.5 h, 1 µM": "19 µL/min/1e6 cells"}
{"Input smiles": "O=C(c1ccc(CNC[C@H](O)c2ccc(O)c3[nH]c(=O)ccc23)cc1)N1CC(COc2cccc([C@](O)(C(=O)OCC3CCN(Cc4ccccc4)CC3)c3ccccc3)c2)C1", "hepatocyte CLint at 1.5 h, 1 µM": "16 µL/min/1e6 cells"}

# context switch: different compound, same hepatocyte CLint at 1.5 h, 1 µM
Determine from records and report hepatocyte CLint at 1.5 h, 1 µM for CN1CCC(COC(=O)[C@](O)(c2ccccc2)c2cccc(-c3ccc(CNC(=O)c4ccc(CNC[C@H](O)c5ccc(O)c6[nH]c(=O)ccc56)cc4)s3)c2)CC1 27 µL/min/1e6 cells

* * *

Protocol details: in vitro
Run conditions: rat, plasma
Description: Stability in rat plasma assessed as half-life at 5 uM incubated for 120 mins by LC-MS/MS analysis
Value kind: log10 half-life at 2 h, 5 µM (log10 of the value in min)
Note the log scale: values are log10 of half-life at 2 h, 5 µM expressed in min.

See these solved cases before continuing.
{"Input smiles": "CN1CCC(COC(=O)[C@](O)(c2ccccc2)c2cccc(OCCCNC(=O)c3ccc(CNC[C@H](O)c4ccc(O)c5[nH]c(=O)ccc45)cc3)c2)CC1", "log10 half-life at 2 h, 5 µM": 2.06}
{"Input smiles": "O=C(NCCCOc1cccc([C@](O)(C(=O)OC[C@@H]2CCN(Cc3ccccc3)C2)c2ccccc2)c1)c1ccc(CNC[C@H](O)c2ccc(O)c3[nH]c(=O)ccc23)cc1", "log10 half-life at 2 h, 5 µM": 1.18}
{"Input smiles": "O=C(NCCCOc1cccc([C@](O)(C(=O)O[C@@H]2CCCN(Cc3ccccc3)C2)c2ccccc2)c1)c1ccc(CNC[C@H](O)c2ccc(O)c3[nH]c(=O)ccc23)cc1.O=CO", "log10 half-life at 2 h, 5 µM": 0.70}
{"Input smiles": "O=C(NCCCOc1cccc([C@](O)(C(=O)OCC2CCN(C3CCC3)CC2)c2ccccc2)c1)c1ccc(CNC[C@H](O)c2ccc(O)c3[nH]c(=O)ccc23)cc1", "log10 half-life at 2 h, 5 µM": 1.28}

# context switch: different compound, same log10 half-life at 2 h, 5 µM
Determine from records and report log10 half-life at 2 h, 5 µM for CN1CCC[C@@H](OC(=O)[C@](O)(c2ccccc2)c2cccc(OCCCNC(=O)c3cccc(CNC[C@H](O)c4ccc(O)c5[nH]c(=O)ccc45)c3)c2)C1 0.90

* * *

System: Beta-2 adrenergic receptor (Homo sapiens, UniProt P07550) | Read-out: pKi
Sequence (P07550 whole entry): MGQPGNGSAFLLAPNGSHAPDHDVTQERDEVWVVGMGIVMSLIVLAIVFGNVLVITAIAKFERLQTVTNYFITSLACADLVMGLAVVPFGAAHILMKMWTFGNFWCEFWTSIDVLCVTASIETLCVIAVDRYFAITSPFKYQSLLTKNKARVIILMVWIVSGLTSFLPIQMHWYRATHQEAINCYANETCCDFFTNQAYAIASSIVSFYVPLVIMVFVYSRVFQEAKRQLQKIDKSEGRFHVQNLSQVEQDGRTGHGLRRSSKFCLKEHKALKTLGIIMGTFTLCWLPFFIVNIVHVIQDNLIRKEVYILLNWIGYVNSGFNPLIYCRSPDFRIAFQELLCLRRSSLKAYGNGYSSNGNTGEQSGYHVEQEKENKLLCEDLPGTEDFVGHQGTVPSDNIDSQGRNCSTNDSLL
A value of pKi is the negative decimal logarithm of a concentration given in moles per litre.

{"Input smiles": "O=C(NCCCOc1cccc([C@](O)(C(=O)O[C@H]2CCCN(Cc3ccccc3)C2)c2ccccc2)c1)c1ccc(CNC[C@H](O)c2ccc(O)c3[nH]c(=O)ccc23)cc1.O=CO", "Test target": "Beta-2 adrenergic receptor (Homo sapiens, UniProt P07550)", "pKi": 9.30}

With Beta-2 adrenergic receptor (Homo sapiens, UniProt P07550) as the test system, provide measured pKi for this compound: O=C(NCCCOc1cccc([C@](O)(C(=O)OC[C@@H]2CCN(Cc3ccccc3)C2)c2ccccc2)c1)c1ccc(CNC[C@H](O)c2ccc(O)c3[nH]c(=O)ccc23)cc1 10.10

With Beta-2 adrenergic receptor (Homo sapiens, UniProt P07550) as the test system, provide measured pKi for this compound: CN1CCC[C@H](OC(=O)[C@](O)(c2ccccc2)c2cccc(OCCCNC(=O)c3ccc(CNC[C@H](O)c4ccc(O)c5[nH]c(=O)ccc45)cc3)c2)C1.O=CO.O=CO 10.60

* * *

Protocol details: in vitro
Run conditions: guinea pig, plasma
Description: Stability in guinea pig plasma assessed as half-life at 5 uM incubated for 120 mins by LC-MS/MS analysis
compounds and their reported half-life at 2 h, 5 µM
# unit: h | format: bare number

See these solved cases before continuing.
{"Input smiles": "O=C(NCCCOc1cccc([C@](O)(C(=O)OCC2CCN(C3CCCC3)CC2)c2ccccc2)c1)c1ccc(CNC[C@H](O)c2ccc(O)c3[nH]c(=O)ccc23)cc1", "half-life at 2 h, 5 µM / h": 2.32}
{"Input smiles": "COc1cc(C(=O)NCCCOc2cccc([C@](O)(C(=O)O[C@@H]3CCCN(C)C3)c3ccccc3)c2)c(Cl)cc1CNC[C@H](O)c1ccc(O)c2[nH]c(=O)ccc12", "half-life at 2 h, 5 µM / h": 2.22}

# context switch: different compound, same half-life at 2 h, 5 µM
Determine from records and report half-life at 2 h, 5 µM for CN1CCC(COC(=O)[C@@](O)(c2ccccc2)c2cccc(-c3ccc(CNC(=O)c4ccc(CNC[C@H](O)c5ccc(O)c6[nH]c(=O)ccc56)cc4)s3)c2)CC1 0.15

* * *

Protocol details: Metabolic stability in rat hepatocytes assessed as parent compound remaining at 10 uM incubated for 60 mins by LC-MS/MS analysis
Value kind: remaining at 1 h, 10 µM (%)
# unit: % | format: bare number

Determine from records and report remaining at 1 h, 10 µM for O=C(NCCCOc1cccc([C@](O)(C(=O)OCC2CCN(Cc3ccccc3)CC2)c2ccccc2)c1)c1ccc(CNC[C@H](O)c2ccc(O)c3[nH]c(=O)ccc23)cc1 70

* * *

Protocol details: in vitro
Run conditions: human, hepatocytes
molecules and their reported hepatocyte CLint at 1.5 h, 1 µM
# unit: µL/min/1e6 cells | format: bare number

See these solved cases before continuing.
{"Molecule": "CN1CCC[C@H](OC(=O)[C@](O)(c2ccccc2)c2cccc(OCCCNC(=O)c3ccc(CNC[C@H](O)c4ccc(O)c5[nH]c(=O)ccc45)cc3)c2)C1.O=CO.O=CO", "hepatocyte CLint at 1.5 h, 1 µM [µL/min/1e6 cells]": 5}
{"Molecule": "O=C(NCCCOc1cccc([C@](O)(C(=O)O[C@H]2CCN(Cc3ccccc3)C2)c2ccccc2)c1)c1ccc(CNC[C@H](O)c2ccc(O)c3[nH]c(=O)ccc23)cc1", "hepatocyte CLint at 1.5 h, 1 µM [µL/min/1e6 cells]": 22}
{"Molecule": "COc1cc(C(=O)NCCCOc2cccc([C@](O)(C(=O)OCC3CCN(Cc4ccccc4)CC3)c3ccccc3)c2)ccc1CNC[C@H](O)c1ccc(O)c2[nH]c(=O)ccc12", "hepatocyte CLint at 1.5 h, 1 µM [µL/min/1e6 cells]": 20}
{"Molecule": "COc1cc(C(=O)NCCCOc2cccc([C@](O)(C(=O)O[C@@H]3CCCN(C)C3)c3ccccc3)c2)c(OC)cc1CNC[C@H](O)c1ccc(O)c2[nH]c(=O)ccc12", "hepatocyte CLint at 1.5 h, 1 µM [µL/min/1e6 cells]": 6}

Determine from records and report hepatocyte CLint at 1.5 h, 1 µM for O=C(NCCCOc1cccc([C@@](O)(C(=O)OCC2CCN(Cc3ccccc3)CC2)c2ccccc2)c1)c1ccc(CNCC(O)c2ccc(O)c3[nH]c(=O)ccc23)cc1 (stereo partly specified) 18

* * *

Test target: Muscarinic acetylcholine receptor M3 (Cavia porcellus)
Sequence (Q8VH26 whole entry): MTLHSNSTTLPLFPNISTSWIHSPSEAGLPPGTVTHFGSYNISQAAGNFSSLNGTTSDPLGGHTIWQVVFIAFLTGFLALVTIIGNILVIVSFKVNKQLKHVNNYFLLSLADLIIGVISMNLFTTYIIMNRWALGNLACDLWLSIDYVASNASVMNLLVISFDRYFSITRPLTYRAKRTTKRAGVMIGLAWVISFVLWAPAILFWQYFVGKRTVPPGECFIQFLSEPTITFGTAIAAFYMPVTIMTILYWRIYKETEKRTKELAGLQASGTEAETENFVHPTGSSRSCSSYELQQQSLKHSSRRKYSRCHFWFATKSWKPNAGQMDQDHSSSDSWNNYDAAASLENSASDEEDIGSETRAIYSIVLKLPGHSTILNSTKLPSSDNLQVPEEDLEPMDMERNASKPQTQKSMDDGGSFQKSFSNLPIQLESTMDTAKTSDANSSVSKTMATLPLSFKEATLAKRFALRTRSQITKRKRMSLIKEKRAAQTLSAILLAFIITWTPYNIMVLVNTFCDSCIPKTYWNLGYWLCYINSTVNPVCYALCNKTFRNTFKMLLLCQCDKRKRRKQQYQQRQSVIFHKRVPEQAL
Protocol details: Antagonist activity at M3 receptor in male albino Dunkin-Hartley guinea pig trachea assessed as inhibition of carbachol-induced smooth muscle contraction in presence of propranolol
compounds and their reported IC50
# unit: nM | format: bare number

See these solved cases before continuing.
{"Compound": "O=C(NCCCCNC[C@H](O)c1ccc(O)c2[nH]c(=O)ccc12)c1ccc(CNC2(C(=O)OCC3CCN(Cc4ccccc4)CC3)CCc3ccccc32)s1 (mixture of isomers; 33)", "IC50 (nM)": 0.794}
{"Compound": "O=C(N[C@@H](c1ccccc1)c1cccc(OCc2ccc(C(=O)NCCCNC[C@H](O)c3ccc(O)c4[nH]c(=O)ccc34)cc2)c1)O[C@@H]1CN2CCC1CC2", "IC50 (nM)": 0.2}

# context switch: different compound, same IC50
Determine from records and report IC50 for O=C(N[C@@H](c1ccccc1)c1cccc(OCc2cccc(C(=O)NCCCCNC[C@H](O)c3ccc(O)c4[nH]c(=O)ccc34)c2)c1)O[C@H]1CN2CCC1CC2 0.794

* * *

Test target: Voltage-dependent L-type calcium channel subunit alpha-1C (Homo sapiens, UniProt Q13936)
Sequence (Q13936 whole entry): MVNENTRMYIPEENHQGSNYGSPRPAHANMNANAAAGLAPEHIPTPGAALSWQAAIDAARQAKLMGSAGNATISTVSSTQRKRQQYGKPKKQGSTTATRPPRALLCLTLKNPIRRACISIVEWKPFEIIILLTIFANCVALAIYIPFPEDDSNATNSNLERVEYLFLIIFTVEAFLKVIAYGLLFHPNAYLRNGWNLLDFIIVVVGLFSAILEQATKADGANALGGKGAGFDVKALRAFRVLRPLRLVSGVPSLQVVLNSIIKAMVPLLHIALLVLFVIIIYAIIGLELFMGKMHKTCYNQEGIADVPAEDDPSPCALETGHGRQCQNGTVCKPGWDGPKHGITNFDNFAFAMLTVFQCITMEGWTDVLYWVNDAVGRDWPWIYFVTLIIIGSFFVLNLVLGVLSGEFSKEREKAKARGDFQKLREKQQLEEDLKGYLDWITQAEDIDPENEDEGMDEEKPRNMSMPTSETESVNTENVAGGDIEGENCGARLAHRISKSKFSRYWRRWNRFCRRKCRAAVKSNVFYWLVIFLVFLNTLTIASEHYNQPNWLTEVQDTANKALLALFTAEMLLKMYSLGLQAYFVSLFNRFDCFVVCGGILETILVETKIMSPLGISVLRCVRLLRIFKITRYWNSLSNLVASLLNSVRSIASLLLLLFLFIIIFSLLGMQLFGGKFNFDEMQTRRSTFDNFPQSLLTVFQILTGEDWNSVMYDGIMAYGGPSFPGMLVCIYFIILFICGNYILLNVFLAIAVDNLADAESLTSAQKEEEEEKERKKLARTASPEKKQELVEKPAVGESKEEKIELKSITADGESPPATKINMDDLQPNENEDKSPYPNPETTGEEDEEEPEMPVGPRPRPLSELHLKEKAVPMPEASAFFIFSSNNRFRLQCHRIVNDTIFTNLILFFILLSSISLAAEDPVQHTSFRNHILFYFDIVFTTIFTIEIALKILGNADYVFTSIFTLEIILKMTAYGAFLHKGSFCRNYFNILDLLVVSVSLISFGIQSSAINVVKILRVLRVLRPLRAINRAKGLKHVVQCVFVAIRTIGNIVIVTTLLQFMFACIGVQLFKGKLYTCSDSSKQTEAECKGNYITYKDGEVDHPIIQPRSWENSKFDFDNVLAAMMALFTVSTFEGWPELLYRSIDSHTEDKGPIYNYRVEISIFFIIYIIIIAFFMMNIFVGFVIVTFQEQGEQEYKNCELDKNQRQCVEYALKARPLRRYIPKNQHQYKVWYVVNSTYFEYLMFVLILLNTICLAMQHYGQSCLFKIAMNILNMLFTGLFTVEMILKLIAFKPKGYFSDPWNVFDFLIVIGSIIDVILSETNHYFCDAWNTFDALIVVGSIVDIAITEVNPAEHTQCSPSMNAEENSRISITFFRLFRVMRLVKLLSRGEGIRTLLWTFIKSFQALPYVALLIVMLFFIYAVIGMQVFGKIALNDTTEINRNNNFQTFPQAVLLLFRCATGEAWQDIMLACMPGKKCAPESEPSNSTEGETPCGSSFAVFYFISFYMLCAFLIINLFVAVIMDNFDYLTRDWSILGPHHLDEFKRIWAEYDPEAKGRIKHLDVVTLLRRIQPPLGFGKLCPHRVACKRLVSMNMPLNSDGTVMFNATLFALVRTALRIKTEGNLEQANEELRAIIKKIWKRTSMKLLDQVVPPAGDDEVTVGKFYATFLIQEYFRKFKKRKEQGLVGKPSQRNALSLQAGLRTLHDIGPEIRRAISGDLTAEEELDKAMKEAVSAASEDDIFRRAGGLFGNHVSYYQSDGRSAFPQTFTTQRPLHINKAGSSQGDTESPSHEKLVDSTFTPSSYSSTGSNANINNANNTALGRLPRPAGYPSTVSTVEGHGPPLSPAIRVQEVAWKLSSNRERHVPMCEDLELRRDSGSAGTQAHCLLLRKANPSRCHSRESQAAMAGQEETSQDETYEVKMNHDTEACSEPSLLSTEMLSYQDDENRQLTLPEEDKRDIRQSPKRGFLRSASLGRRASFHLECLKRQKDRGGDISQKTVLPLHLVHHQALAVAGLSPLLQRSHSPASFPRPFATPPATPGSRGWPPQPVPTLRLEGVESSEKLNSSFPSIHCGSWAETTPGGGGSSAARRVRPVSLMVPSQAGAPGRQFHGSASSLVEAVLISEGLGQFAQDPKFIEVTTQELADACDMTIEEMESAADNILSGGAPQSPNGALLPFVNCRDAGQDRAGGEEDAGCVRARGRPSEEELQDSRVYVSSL
Value kind: IC50 (µM)
# unit: µM | format: bare number

With Voltage-dependent L-type calcium channel subunit alpha-1C (Homo sapiens, UniProt Q13936) as the test system, provide measured IC50 for this molecule: CN1CCC[C@@H](OC(=O)[C@](O)(c2ccccc2)c2cccc(OCCCNC(=O)c3ccc(CNC[C@H](O)c4ccc(O)c5[nH]c(=O)ccc45)cc3)c2)C1 314

* * *

Protocol details: in vitro
Run conditions: rat, plasma, t1/2
Value kind: half-life at 2 h, 5 µM (min)
# unit: min | format: bare number

Determine from records and report half-life at 2 h, 5 µM for O=C(NCCCCNC[C@H](O)c1ccc(O)c2[nH]c(=O)ccc12)c1ccc(CNC2(C(=O)OCC3CCN(Cc4ccccc4)CC3)CCc3ccccc32)s1 (mixture of isomers; 32) 30
